Just for reference, paper PMC8360279 is where these values come from.

Below, each of the molecules is paired with its reported Cmax value.
assay: in vivo; settings: male, Sprague-Dawley, rat, po, 4.32 g/kg
readout_name: Cmax

1) Cc1cc(O)c2c(c1)C(=O)c1cc(O)cc(O)c1C2=O [emodin]
363 ng/mL
2) O=C(O)c1cc(O)c(O)c(O)c1 [gallic acid]
246 ng/mL
3) COc1cc(OC)c(OC)cc1C=O [asarylaldehyde]
200 ng/mL

----------
Below, each of the molecules is paired with its reported half-life value.
test: Pharmacokinetics in rat plasma after oral administration of PA, PMRP or ATR (HPLC-MS and GC-MS); conditions: male, Sprague-Dawley, rat, plasma, po, 4.32 g/kg
readout_name: half-life (h)

1) C/C=C\c1cc(OC)c(OC)cc1OC
14
2) OCC1OC(Oc2c(O)cc(O)cc2C=Cc2ccc(O)cc2)C(O)C(O)C1O (stereo not shown)
3.01
3) C/C=C/c1ccc(OC)c(OC)c1 [cis-methyl isoeugenol]
8.1
4) C/C=C/c1cc(OC)c(OC)cc1OC
8.26
